Origin of the recorded values: patent US11117899B2

ASSAY SYSTEM: UniProt:P29274
Sequence (P29274 whole entry): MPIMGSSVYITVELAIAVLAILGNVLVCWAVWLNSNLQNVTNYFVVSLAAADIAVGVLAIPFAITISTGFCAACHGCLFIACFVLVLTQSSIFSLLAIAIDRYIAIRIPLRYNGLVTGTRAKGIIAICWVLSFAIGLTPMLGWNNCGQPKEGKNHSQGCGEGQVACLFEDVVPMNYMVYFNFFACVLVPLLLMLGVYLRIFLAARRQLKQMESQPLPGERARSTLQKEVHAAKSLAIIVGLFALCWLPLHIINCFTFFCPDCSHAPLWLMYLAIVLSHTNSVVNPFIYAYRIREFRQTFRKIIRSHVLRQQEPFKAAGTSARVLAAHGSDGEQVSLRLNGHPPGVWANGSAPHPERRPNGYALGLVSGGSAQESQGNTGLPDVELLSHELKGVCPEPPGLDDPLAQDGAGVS
EXPERIMENT: Human adenosine A2A receptor calcium flux assay
TEST CONDITIONS: A2A stable CHO cell strain, antagonist mode against agonist NECA at EC80, FLIPR Fluo-4
// thresholds for IC50 classes: bottom bin: < 0.6 nM; middle bin: ≥ 0.6 nM and < 3 nM; top bin: ≥ 3 nM

Problem: Which IC50 band matches Cc1cc(-c2c(-c3ccn(C)n3)nc(N)n3nc(C)nc23)cc(C(F)(F)F)n1 ?
Result: bottom bin

Problem: Which IC50 band matches CCc1nc2c(-c3cc(C)nc(C(F)(F)F)c3)c(-c3ccccc3F)nc(N)n2n1 ?
Result: top bin

Problem: Which IC50 band matches COc1cc(-c2c(-c3ccccc3)nc(N)n3ncnc23)ccn1 ?
Result: bottom bin

Problem: Which IC50 band matches Cc1cc(-c2c(-c3ccc(C)o3)nc(N)n3nc(CO[C@H]4CCOC4)nc23)cc(C(F)(F)F)n1 ?
Result: bottom bin

Problem: Which IC50 band matches Cc1cc(-c2c(-c3ccc(F)cc3)nc(N)n3nc(C#N)nc23)cc(C(F)(F)F)n1 ?
Result: top bin

Problem: Which IC50 band matches Cc1cc(-c2c(-c3ccn(C)n3)nc(N)n3ncnc23)cc(C(F)(F)F)n1 ?
Result: middle bin

Problem: Which IC50 band matches Cc1cc(-c2c(-c3ccccc3)nc(N)n3nc(C)nc23)cc(C(F)(F)F)n1 ?
Result: bottom bin

Problem: Which IC50 band matches Cc1cc(-c2c(-c3cccc(F)c3)nc(N)n3ncnc23)cc(C(F)(F)F)n1 ?
Result: bottom bin

Problem: Which IC50 band matches Cc1cc(-c2c(-c3ccccc3)nc(N)n3nc(CNC4CC4)nc23)cc(C)n1 ?
Result: middle bin

Problem: Which IC50 band matches COCCOCc1nc2c(-c3cc(C)nc(Cl)c3)c(-c3ccc(F)cc3)nc(N)n2n1 ?
Result: top bin

Problem: Which IC50 band matches Nc1nc(-c2ccccc2)c(-c2ccc3[nH]nc(C(F)(F)F)c3c2)c2ncnn12 ?
Result: middle bin

Problem: Which IC50 band matches CCc1nc2c(-c3cc(C)nc(C(F)(F)F)c3)c(-c3ccc(F)cc3F)nc(N)n2n1 ?
Result: top bin

Problem: Which IC50 band matches COc1ccccc1-c1nc(N)n2nc(C)nc2c1-c1cc(C)nc(C(F)(F)F)c1 ?
Result: top bin

Problem: Which IC50 band matches COc1ccccc1-c1nc(N)n2ncnc2c1-c1cc(C)nc(C(F)(F)F)c1 ?
Result: middle bin

Problem: Which IC50 band matches COc1ccccc1-c1nc(N)n2ncnc2c1-c1ccc2nn[nH]c2c1 ?
Result: top bin

Problem: Which IC50 band matches Cc1cc(-c2c(-c3ccc(F)cc3)nc(N)n3nc(C(C)(C)O)nc23)cc(C(F)(F)F)n1 ?
Result: middle bin

Problem: Which IC50 band matches CCc1nc2c(-c3ccc4[nH]nnc4c3)c(-c3ccccc3)nc(N)n2n1 ?
Result: top bin

Problem: Which IC50 band matches Cc1cc(-c2c(-c3ccc(C)o3)nc(N)n3nc(CO)nc23)cc(Cl)n1 ?
Result: bottom bin

Problem: Which IC50 band matches Nc1nc(-c2ccccc2)c(-c2ccc(O)c(C(F)(F)F)c2)c2ncnn12 ?
Result: middle bin

Problem: Which IC50 band matches Cc1cc(-c2c(-c3ccc(C)o3)nc(N)n3nc(CO)nc23)cc(C(F)(F)F)n1 ?
Result: middle bin

Problem: Which IC50 band matches Nc1nc(-c2ccc(F)cc2)c(-c2ccc3nn[nH]c3c2)c2nc(CO)nn12 ?
Result: middle bin

Problem: Which IC50 band matches Nc1nc(-c2ccccc2)c(-c2cc(Cl)c(O)c(Cl)c2)c2ncnn12 ?
Result: bottom bin
